experimental-details: Permeation in Caco-2 cells
Format: in vitro ADME
condition-context: human, Caco-2, 2 μM, 37° C., apical to basolateral
quantity-kind: Papp A→B at 90 min, 2 μM (×10⁻⁶ cm/s)
Give bare numbers, in ×10⁻⁶ cm/s.

Could you tell me which Papp A→B at 90 min, 2 μM is on file for C[C@]12C[C@H](c3ccc(S(C)(=O)=O)cc3)C3=C4CCC(=O)C=C4CC[C@H]3[C@@H]1CC[C@@]2(O)C(F)(F)C(F)(F)F ?
10.4

---

measured-target: human progesterone receptor B (PR-B) (Homo sapiens)
Construct: expressed in transfected cells; host or cells: SK-N-MC human neuroblastoma cells, stably transfected with pRChPR-B-neo and pMMTV-LUC
Sequence (P06401 whole entry): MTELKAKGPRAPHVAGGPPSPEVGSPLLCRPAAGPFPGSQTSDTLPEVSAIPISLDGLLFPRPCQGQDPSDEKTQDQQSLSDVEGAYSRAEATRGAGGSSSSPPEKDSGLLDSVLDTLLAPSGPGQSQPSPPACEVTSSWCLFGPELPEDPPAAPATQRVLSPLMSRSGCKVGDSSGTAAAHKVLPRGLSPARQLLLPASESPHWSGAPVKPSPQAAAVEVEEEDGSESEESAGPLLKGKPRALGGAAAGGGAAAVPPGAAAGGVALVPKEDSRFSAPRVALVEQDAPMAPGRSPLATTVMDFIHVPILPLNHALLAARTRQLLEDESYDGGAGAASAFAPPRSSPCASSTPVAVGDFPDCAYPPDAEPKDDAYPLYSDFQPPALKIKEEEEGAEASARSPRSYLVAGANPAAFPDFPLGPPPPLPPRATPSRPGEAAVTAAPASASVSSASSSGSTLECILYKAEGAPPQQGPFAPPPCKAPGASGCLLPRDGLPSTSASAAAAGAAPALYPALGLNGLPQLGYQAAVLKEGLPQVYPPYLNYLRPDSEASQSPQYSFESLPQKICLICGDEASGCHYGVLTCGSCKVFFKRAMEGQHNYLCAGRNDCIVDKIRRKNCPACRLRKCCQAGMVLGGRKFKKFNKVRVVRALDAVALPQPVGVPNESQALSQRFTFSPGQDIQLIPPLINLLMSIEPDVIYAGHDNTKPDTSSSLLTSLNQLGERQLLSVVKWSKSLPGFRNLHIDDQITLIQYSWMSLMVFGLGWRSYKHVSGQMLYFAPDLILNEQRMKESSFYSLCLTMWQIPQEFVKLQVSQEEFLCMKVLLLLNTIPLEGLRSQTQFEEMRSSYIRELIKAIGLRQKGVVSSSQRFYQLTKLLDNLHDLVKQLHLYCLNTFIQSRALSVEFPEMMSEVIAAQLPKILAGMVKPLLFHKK
experimental-details: Progesterone receptor-antagonistic action in stable transfectants of SK-N-MC cells with human PR-B and MTV-LUC reporter
Assay type: cell-based
condition-context: antagonistic activity against 0.1 nmol/l promegestone, SK-N-MC cells, 24 hours, LUC reporter; read-out: Progesterone receptor B (PR-B) Potency IC50
For each of the compounds below, state its log10 IC50.
Form field - Quantity: IC50; Unit: nM; Scale: log10

Below, 5 compounds whose answers are already recorded.
compound: CCS(=O)(=O)c1ccc([C@H]2C[C@@]3(C)C(CC[C@@]3(O)C(F)(F)C(F)(F)F)C3CCC4=CC(=O)CCC4=C32)cc1 (some centres unmarked) [Example 5]
log10 IC50: -1.05
--
compound: C[C@]12C[C@H](c3ccc(S(C)(=N)=O)cc3)C3=C4CCC(=O)C=C4CCC3C1CC[C@@]2(O)C(F)(F)C(F)(F)F (some centres unmarked) [Example 8]
log10 IC50: -0.05
--
compound: C[C@]12C[C@H](c3ccc(-c4ccc(S(C)(=N)=O)cc4)cc3)C3=C4CCC(=O)C=C4CCC3C1CC[C@@]2(O)C(F)(F)C(F)(F)F (some centres unmarked) [Example 12]
log10 IC50: -1.10
--
compound: CSc1ccc([C@H]2C[C@@]3(C)[C@@H](CC[C@@]3(O)C(F)(F)C(F)(F)F)[C@@H]3CCC4=CC(=O)CCC4=C32)cc1 [Example 1]
log10 IC50: -1.92
--
compound: C[C@]12C[C@H](c3ccc(-c4ccc(S)cc4)cc3)C3=C4CCC(=O)C=C4CC[C@H]3[C@@H]1CC[C@@]2(O)C(F)(F)C(F)(F)F [Example 13]
log10 IC50: -1.14

Need log10 IC50 for each of these compounds.
1. Cc1ccc(S(=O)(=O)N=S(C)(=O)c2ccc(-c3ccc([C@H]4C[C@@]5(C)C(CC[C@@]5(O)C(F)(F)C(F)(F)F)C5CCC6=CC(=O)CCC6=C54)cc3)cc2)cc1 (mixture of isomers) [Example 11]
2. C[S+]([O-])c1ccc([C@H]2C[C@@]3(C)[C@@H](CC[C@@]3(O)C(F)(F)C(F)(F)F)[C@@H]3CCC4=CC(=O)CCC4=C32)cc1 (mixture of isomers) [Example 3]
3. C[C@]12C[C@H](c3ccc(SCc4ccccc4)cc3)C3=C4CCC(=O)C=C4CCC3C1CC[C@@]2(O)C(F)(F)C(F)(F)F (some centres unmarked) [Example 6]

1: -2.00; 2: -0.92; 3: -0.64
